- System: P12-Ichikawa
- method_description: cell viability relative to DMSO control; higher = less cytotoxic
- condition_summary: RPMI 5 mM glucose + 10% FBS; 48 h; 46.1 µM
Record form. Attribute: cell viability. Fill in for each entry.
One number for each entry, in %.

Example entries and their recorded answers appear below.
compound_smiles	cell viability (%)
Cc1coc2c1C(=O)C(=O)c1c-2ccc2c(C)cccc12	115
Clc1ccc(-c2nc3sccn3c2/C=N/OCc2ccc(Cl)c(Cl)c2)cc1	98.9

Field: cell viability. Fill in for each record below.
1. CC(C)c1ccc2c(c1)c(SC(C)(C)C)c(CC(C)(C)C(=O)[O-])n2Cc1ccc(Cl)cc1
2. Cc1nc2cnc3ccc(C#Cc4cccnc4)cc3c2n1-c1ccc(C(C)(C)C#N)cc1
3. CC(C)(C#N)c1cc(Cn2cncn2)cc(C(C)(C)C#N)c1
4. CC(C)c1nc(CN(C)C(=O)N[C@H](C(=O)N[C@@H](Cc2ccccc2)C[C@H](O)[C@H](Cc2ccccc2)NC(=O)OCc2cncs2)C(C)C)cs1
5. S=C(NCc1ccc2c(c1)OCO2)N1CCN(c2ncnc3c2oc2ccccc23)CC1

Response:
[89.9, 19.9, 112, 88.2, 29.6]

Prompt: Returns the measured cell viability for the input molecule. Input: CCOC(=O)N1CCN(/[N+]([O-])=N/Oc2ccc([N+](=O)[O-])cc2C#N)CC1
Response: 7.09

The reported numbers originate from the supplement of paper PMC11451515.
